What growth inhibition was measured for each of the following?
experiment: NCI Yeast Anticancer Drug Screen. Data for the mec2-1 strain (AID 157); settings: S. cerevisiae mec2-1 strain, at 50.0 µM (retest, dose inferred, filed as 5.0), stronger effect = higher value
About 79,000 compounds went through this panel and 15% of them were active in at least one assay; those are over-represented in the sample as a whole.
Give bare numbers, in %.

Provide each entry's growth inhibition from the list below.
1. CN(N=O)C(=O)Nc1ccc(C(=O)O)cc1
2. CCN(CC)CC(=O)c1ccc2cc(Cl)c3ccccc3c2c1
3. OC1(C#CI)CCCCC1
4. NNc1ccccc1-c1nc2ccccc2[nH]1

Reply text:
1. 37
2. 99
3. 98
4. -40

Provide each entry's growth inhibition from the list below.
1. CCC(=O)C1=C(O)c2cc(OC)ccc2CC1C(=O)OC (stereo not drawn)
2. CN(C)CC(CN(C)C)C(=O)/C=C/c1ccc(Cl)cc1Cl
3. O=S(=O)(c1cccc(C(F)(F)F)c1)N1c2ccccc2-n2cccc2C1c1cccnc1 (stereo not drawn)
4. O=C(Cc1ccccc1)NNc1nc(NNC(=O)c2ccncc2)nc(Nc2ccc(Cl)cc2)n1
5. Clc1ccc(/C(=C\c2ccccc2)Cn2ccnc2)cc1
6. COc1cccc(/C=C2\S/C(=N/Nc3nc(-c4ccc([N+](=O)[O-])cc4)cs3)NC2=O)c1O

Reply text:
-1
99
97
22
88
52

----------
Assay: NCI Yeast Anticancer Drug Screen. Data for the bub3 strain (AID 167)
Conditions: S. cerevisiae bub3 mutant strain, at 50.0 µM (retest, dose inferred, filed as 5.0)
Description: Growth inhibition of yeast strains with defined genetic alterations is measured as a screen for potential anti-cancer activity. Selected strains with alterations in DNA damage repair or cell cycle control were exposed to compounds and growth inhibition was measured relative to vehicle treated controls. The strain used in this assay is bub3
The panel holds about 79,000 compounds, 15% with a hit somewhere; the sample as a whole holds those more often. Activity calls are given as the source filed them. Rule as the data show it: active = growth inhibition above about 70%; inactive = the rest.
Give your call using only these classes: t (active), f (inactive)

Observe how each entry below is paired with its result.
CCOC(=S)SSSC(=S)OCC
t
O=[N+]([O-])[O][Sn]([O][Sn]([O][N+](=O)[O-])([c]1ccccc1)[c]1ccccc1)([c]1ccccc1)[c]1ccccc1
t
CC(=O)O[C@H]1CC[C@@]2(C)C(=CC[C@@H]3C2CC[C@]2(C)C(=O)NC(=O)CC32)C1 (stereo partly specified)
f
NC(N)=NC(N)=Nc1ccccc1 (tested in a mixture with another compound)
f
CC12CCC(CC(=O)/C1=C(/Br)I)C2(C)C (stereo unspecified)
t
CC1(C2CC2)C(C#N)(C#N)C1(C#N)C#N
t
COc1ccc2c3c1OC(C)C31CC(=O)CCC1CC2 (stereo unspecified)
f
CC(=O)Oc1ccc2c(c1)Cc1cc(N3C(=O)C=CC3=O)ccc1-2
t

Inquiry: Which outcome was entered for the compound "CN(C)/C(=N/C(=S)Nc1ccccc1)SCc1ccccc1" in this test?
Reply text: t

Inquiry: Which outcome was entered for the compound "CCCCCCCC/C=C\CCCCCCCCN" in this test?
Reply text: t

Inquiry: Which outcome was entered for the compound "COC(=O)c1ccccc1N=NNc1cccc(SC)c1" in this test?
Reply text: t

----------
test: NCI Yeast Anticancer Drug Screen. Data for the CLN2oe strain (AID 163);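 further: 0% = growth of vehicle-only control cultures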; conditions: S. cerevisiae CLN2oe strain, at 11.0 µM, stronger effect = higher value
This is part of a sample that, as a whole, favours compounds with a hit. Of some 79,000 tested, about 15% had one in any assay.
quantity.kind: growth inhibition (%)
Give bare numbers, in %.

Sample answers from the record:
O=C(NO)c1coc2ccccc2c1=O
4
CCOP(=O)(OCC)/C(C#N)=C/c1cccc(Oc2ccccc2)c1
42
Cc1cccc(/C=N/NC(=S)NC2CCCCC2)n1
-23
CCN(CC)C(=S)SC(=S)N(CC)CC
18
O=C(O)c1ccc2cc(Cl)c3ccccc3c2c1
23

Please look at the following compound next.
Inquiry: Find the recorded growth inhibition belonging to "O=C1c2cccc3cccc(c23)C(=O)N1CCNCCN1C(=O)c2cccc3cccc(c23)C1=O" and report it.
Reply text: 4
